Value source: PubChem BioAssay AID1345085

Tested on: SKOV3
Experiment: Confirmatory qHTS for gynecologic anti-cancer compounds from libraries of approved drugs and bioactive compounds; note: nearly all actives have a fitted effect of over 55% in size
Details: gynecologic cancer cell panel viability, ATPlite luminescence, 48 h; series mostly up to 57.6 µM
Results filed as inconclusive are left out. Activity calls are given as the source filed them. Calls come from the whole dose curve; as a rule, active = well fitted cell-killing curve with a large enough effect; inconclusive = small, poorly fitted or top-dose-only effect, or effect the other way; inactive = no such curve, though single readings can be large or run the other way.
Classes to choose from: True = active, False = inactive

For orientation, consider the following solved cases.
Molecule	Assigned category
COc1cc2c(Nc3ccc(NC(=O)c4ccccc4)cc3)ncnc2cc1OCCCN1CCOCC1	False
Cn1c(=O)c(F)c(Nc2ccc(I)cc2F)c2c(=O)n(CC(O)CO)cnc21 (centres undefined)	True
COc1cc2c(Oc3ccc(-c4cnc(Nc5ccc(F)cc5)n(C)c4=O)cc3F)ccnc2cc1OCCCN1CCOCC1	False
COc1ccc(-c2cc3nccn3c(Nc3ncccc3C(N)=O)n2)cc1OC	False
CC(C)CC(=O)Nc1n[nH]c2c1CN(C(=O)C1CCN(C)CC1)C2(C)C	False

How was Cn1cc(-c2[nH]c3cc(NC(=O)[C@H](N)C4CCCCC4)cc4c3c2C=NNC4=O)cn1 classified in this test?
True

Which outcome did this test record for the molecule COc1cc(Nc2ncc3c(n2)-c2ccc(Cl)cc2C(c2c(F)cccc2OC)=NC3)ccc1C(=O)O ?
False

What did the test return for CCN1CCN(Cc2ccc(Nc3ncc(F)c(-c4cc(F)c5nc(C)n(C(C)C)c5c4)n3)nc2)CC1 ?
False

Just curious, what result did Cc1cnc(Nc2ccc(OCCN3CCCC3)cc2)nc1Nc1cccc(S(=O)(=O)NC(C)(C)C)c1 get here?
True
